Molecular target: Type III cGMP phosphodiesterase
Experiment: Lineweaver-Burke analysis of cGMP hydrolysis by toad photoreceptor rod outer segment membranes
Assay type: biochemical
Conditions: 20 nM enzyme, 100 mM NaCl, 20 μM p[NH]ppG, pH 7.4; Ki calculated from slope/Km ratios; read-out: Ki
outcomeMeasure: Ki (µM)
The response must be a number in µM with no trailing unit.

Qu. // Ki lookup, key: Nc1nc2c(ncn2[C@@H]2O[C@@H]3COP(=O)(O)O[C@H]3[C@H]2OC(=O)c2ccc(C(=O)c3ccccc3)cc2)c(=O)[nH]1
Ans. 0.3

Qu. Continue with Nc1nc(O)c2nc(Br)n([C@@H]3O[C@@H]4COP(=O)(O)O[C@H]4[C@H]3O)c2n1 [Example 8-Br-cGMP, reference compound]
Ans. 6

All values here come from patent US5039797A.
